These entries and their values trace back to patent US20110105389A1.

Biological target: CYP3A4 (Homo sapiens, UniProt P08684)
Sequence (P08684 whole entry): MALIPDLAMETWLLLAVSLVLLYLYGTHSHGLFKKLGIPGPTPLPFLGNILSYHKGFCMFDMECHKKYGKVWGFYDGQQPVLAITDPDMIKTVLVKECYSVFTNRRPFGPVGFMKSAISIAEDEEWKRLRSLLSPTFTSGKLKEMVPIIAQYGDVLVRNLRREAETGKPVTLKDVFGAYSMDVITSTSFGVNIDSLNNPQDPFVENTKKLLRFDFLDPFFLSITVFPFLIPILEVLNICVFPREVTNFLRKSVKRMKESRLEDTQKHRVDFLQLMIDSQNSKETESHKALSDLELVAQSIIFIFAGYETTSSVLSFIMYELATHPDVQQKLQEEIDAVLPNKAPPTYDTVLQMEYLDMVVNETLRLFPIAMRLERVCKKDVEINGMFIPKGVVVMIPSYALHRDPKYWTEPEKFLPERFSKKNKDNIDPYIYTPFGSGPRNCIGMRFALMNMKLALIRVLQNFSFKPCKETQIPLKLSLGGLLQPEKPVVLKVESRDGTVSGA
Experiment: Cytochrome P450 inhibition, Method B6 (two substrates)
Conditions: read-out: IC50 CYP 3A4; Table 4a; nifedipine used as substrate
For each record, write down the corresponding IC50.
Numbers only; they are read as µM.

In: For CYP3A4 (Homo sapiens, UniProt P08684), provide IC50 of CC(C)[C@@H]1NCCOc2ccccc2C2CCC(C2)NC(=O)[C@@H](Cc2c[nH]c3ccccc23)NC(=O)[C@H](C(C)O)N(C)C1=O (some centres unmarked) [Compound 1843] please.
Out: 6.5

In: For CYP3A4 (Homo sapiens, UniProt P08684), provide IC50 of CC(C)[C@@H]1NCC2CCc3cccc(c3O2)CCCNC(=O)[C@@H](Cc2ccccc2)NC(=O)[C@H](C(C)O)N(C)C1=O (some centres unmarked) [Compound 1777] please.
Out: 6
